Experimental Protocol: Cytotoxicity assay in MT-4 cells
Assay type: cell-based, human
Setup Conditions: human, uninfected MT-4 cells, 5 days incubation; read-out: CC50
Test Readout: CC50 at 5 days

C[C@@]12CCCCN(C1)C(=O)c1c(O)c(=O)c(C(=O)NCc3c(F)cc(F)cc3F)cn12    18.8 µM
O=C(NCc1c(F)cc(F)cc1F)c1cn2c(c(O)c1=O)C(=O)N1CCC=C[C@@H]2C1    11.3 µM
O=C(NCc1ccc(F)cc1F)c1cn2c(c(O)c1=O)C(=O)N1C[C@H]2CCC(F)(F)C1    23.3 µM
O=C(NCc1c(F)cc(F)cc1F)c1cn2c(c(O)c1=O)C(=O)N1CC2CCc2sccc21 (stereo in doubt)    14 µM
O=C(NCc1ccc(F)cc1F)c1cn2c(c(O)c1=O)C(=O)N1CCCC(F)(F)[C@@H]2C1    14.4 µM
O=C(NCc1ccc(F)cc1F)c1cn2c(c(O)c1=O)C(=O)N1CCCC[C@H]2C1 (single isomer, unassigned)    10.8 µM
Cn1cc2c(n1)CC[C@H]1CN2C(=O)c2c(O)c(=O)c(C(=O)NCc3c(F)cc(F)cc3F)cn21    > 49.9 µM
O=C(NCc1ccc(F)c(Cl)c1F)c1cn2c(c(O)c1=O)C(=O)N1Cc3cc(F)c(F)cc3C[C@@H]2C1    > 50 µM
C[C@]1(O)CCCN2C[C@H]1n1cc(C(=O)NCc3ccc(F)cc3F)c(=O)c(O)c1C2=O    22.2 µM
O=C(NCc1c(F)cc(F)cc1F)c1cn2c(c(O)c1=O)C(=O)N1Cc3cc(F)ccc3C[C@H]2C1    8.85 µM

Inquiry: Item O=C(NCc1ccc(F)cc1F)c1cn2c(c(O)c1=O)C(=O)N1Cc3cc(F)ccc3C[C@H]2C1 : provide CC50 at 5 days
Reply text: > 50 µM

Inquiry: // fetch CC50 at 5 days given entry O=C(NCc1ccc(F)cc1F)c1cn2c(c(O)c1=O)C(=O)N1CCCC(O)(C(F)F)[C@H]2C1 (some centres unmarked)
Reply text: 23.7 µM

Inquiry: Quickly give me recorded CC50 at 5 days for C[C@]1(F)CCCN2C[C@H]1n1cc(C(=O)NCc3c(F)cc(F)cc3F)c(=O)c(O)c1C2=O
Reply text: 13.1 µM

Inquiry: Annotate the compound CCC1(F)CCCN2CC1n1cc(C(=O)NCc3ccc(F)cc3F)c(=O)c(O)c1C2=O (centres unmarked) with its measured CC50 at 5 days.
Reply text: 22.3 µM

###

CC50 at 5 days values for the compounds below.
Experimental Protocol: Cytotoxicity assay in MT-4 cells
Type: cell-based, human
Setup Conditions: human, uninfected MT-4 cells, 5 days incubation; read-out: CC50
Express the result in µM but write the number alone.

The examples below pair each entry with its known result.
O=C(NCc1ccc(F)cc1F)c1cn2c(c(O)c1=O)C(=O)N1CCCC[C@@H]2C1 (single isomer, unassigned)    11.5
C[C@H]1OC[C@H](C)N2C[C@H]1n1cc(C(=O)NCc3c(F)cc(F)cc3F)c(=O)c(O)c1C2=O    16.7
C[C@H]1CC[C@H](C)N2C[C@H]1n1cc(C(=O)NCc3c(F)cc(F)cc3F)c(=O)c(O)c1C2=O    11.4
O=C(NCc1c(F)cc(F)cc1F)c1cn2c(c(O)c1=O)C(=O)N1CCC[C@@H]3C[C@]32C1    11.1

Inquiry: Supply measured CC50 at 5 days of C[C@]12CC=CCN(C1)C(=O)c1c(O)c(=O)c(C(=O)NCc3ccc(F)cc3F)cn12 in your reply.
Reply text: 13.7

Inquiry: Please indicate CC50 at 5 days recorded for O=C(NCc1ccc(F)cc1F)c1cn2c(c(O)c1=O)C(=O)N1CC/C=C\C[C@@H]2C1
Reply text: 10.7

Inquiry: Retrieve CC50 at 5 days measured for O=C(NCc1ccc(F)c(Cl)c1F)c1cn2c(c(O)c1=O)C(=O)N1C[C@H]2CCCc2ccccc21 and print it.
Reply text: 16.3

###

Experimental Protocol: Cytotoxicity assay in MT-4 cells
Type: cell-based, human
Setup Conditions: human, uninfected MT-4 cells, 5 days incubation; read-out: CC50
Test Readout: CC50 at 5 days (µM)
Entry rule: numbers only, all in µM.

Study these solved cases before continuing.
O=C(NCc1c(F)cc(F)cc1F)c1cn2c(c(O)c1=O)C(=O)N1CCc3cc(Cl)ccc3[C@H]2C1    12.4
C[C@@H]1C=C[C@H](C)N2C[C@H]1n1cc(C(=O)NCc3c(F)cc(F)cc3F)c(=O)c(O)c1C2=O    7.77
O=C(NCc1ccc(F)cc1F)c1cn2c(c(O)c1=O)C(=O)N1C(=O)C2CCc2ccccc21 (centres unmarked)    10.9

Inquiry: Give CC50 at 5 days for the following compound: C[C@H]1CCC[C@H]2CN1C(=O)c1c(O)c(=O)c(C(=O)NCc3ccc(F)cc3F)cn12
Reply text: 10.3

Inquiry: Let me know recorded CC50 at 5 days for C[C@@H]1CO[C@H](C)[C@H]2CN1C(=O)c1c(O)c(=O)c(C(=O)NCc3ccc(F)cc3F)cn12 , thanks.
Reply text: 22.4

Inquiry: Find the measured CC50 at 5 days of O=C(NCc1ccc(F)c(Cl)c1Cl)c1cn2c(c(O)c1=O)C(=O)N1CCCC[C@H]2C1 and report it.
Reply text: 3.46

Inquiry: Write down CC50 at 5 days measured for item C[C@H]1CC[C@H](C)N2C[C@H]1n1cc(C(=O)NCc3ccc(F)cc3F)c(=O)c(O)c1C2=O
Reply text: 10.8

Inquiry: For the compound O=C(NCc1ccc(F)cc1F)c1cn2c(c(O)c1=O)C(=O)N1CCNCC2C1 (centres unmarked) , give its reported CC50 at 5 days.
Reply text: 1.66

Inquiry: State its CC50 at 5 days: C[C@@H]1CC[C@H]2C[C@@]23CN1C(=O)c1c(O)c(=O)c(C(=O)NCc2c(F)cc(F)cc2F)cn13
Reply text: 8.49

Inquiry: Supply recorded CC50 at 5 days for O=C(NCc1ccc(F)cc1F)c1cn2c(c(O)c1=O)C(=O)N1CCCC(F)C2C1 (centres unmarked) here.
Reply text: 17.2

Inquiry: Note CC50 at 5 days for the compound shown: O=C(NCc1ccc(F)cc1F)c1cn2c(c(O)c1=O)C(=O)N1CC=CC[C@@H]2C1
Reply text: 11.1

###

# Lookup of reported CC50 at 5 days keyed by entry
Experimental Protocol: Cytotoxicity assay in MT-4 cells
Format: cell-based, human
Setup Conditions: human, uninfected MT-4 cells, 5 days incubation; read-out: CC50
Method: Each plate contained up to 8 test compounds, with negative (No Drug Control) and 5 μM AZT positive controls. MT-4 cells were pre-infected with 10 μL of either RPMI (mock-infected) or a fresh 1:250 dilution of HIV-1 IIIB concentrated virus stock. […] After 5 days incubation in a humidified and temperature controlled incubator (37° C.), Cell Titer Glo (Promega) was added to the assay plates and chemiluminescence read using an Envision plate-reader. […]
Note: unit µM is implicit; provide only the numeric part.

Consider the following illustrative entries.
CC(C)N1CCN2CC(C1)n1cc(C(=O)NCc3ccc(F)cc3F)c(=O)c(O)c1C2=O (stereo not drawn)    16.4
O=C(NCc1ccc(F)c(Cl)c1F)c1cn2c(c(O)c1=O)C(=O)N1CCC=C(F)[C@@H]2C1 (single isomer, unassigned)    14.6
O=C(NCc1c(F)cc(F)cc1F)c1cn2c(c(O)c1=O)C(=O)N1C[C@@H]2CCc2sccc21    11.9

Inquiry: State its CC50 at 5 days for this compound: O=C(NCc1c(F)cc(F)cc1F)c1cn2c(c(O)c1=O)C(=O)N1CCSC[C@@H]2C1
Reply text: 39.5

Inquiry: Write down CC50 at 5 days measured for item O=C(NCc1c(F)cc(F)cc1F)c1cn2c(c(O)c1=O)C(=O)N1CCc3ccc(Br)cc3[C@@H]2C1 (single isomer, unassigned)
Reply text: 4.77

Inquiry: Tell me its CC50 at 5 days given O=C(NCc1ccc(F)cc1F)c1cn2c(c(O)c1=O)C(=O)N1CCCC[C@]2(CF)C1 as the entry.
Reply text: 14.4

Inquiry: Give CC50 at 5 days for the following compound: O=C(NCc1c(F)cc(F)cc1F)c1cn2c(c(O)c1=O)C(=O)N1CCc3ccccc3[C@H]2C1 (single isomer, unassigned)
Reply text: 13.8

Inquiry: Please give measured CC50 at 5 days of the following entry: O=C(NCc1c(F)cc(F)cc1F)c1cn2c(c(O)c1=O)C(=O)N1CCC=C[C@H]2C1
Reply text: 11.8

Inquiry: Output measured CC50 at 5 days for this item: O=C(NCc1c(F)cc(F)cc1F)c1cn2c(c(O)c1=O)C(=O)N1CCc3cc(F)c(F)cc3[C@H]2C1 (single isomer, unassigned)
Reply text: 9.87

Inquiry: Specify measured CC50 at 5 days for C[C@@H]1N2C[C@H](CCC1(C)F)n1cc(C(=O)NCc3c(F)cc(F)cc3F)c(=O)c(O)c1C2=O (stereo partly drawn) .
Reply text: 9.18

Inquiry: Please look at this compound and report its CC50 at 5 days: O=C(NCc1c(F)cc(F)cc1F)c1cn2c(c(O)c1=O)C(=O)N1CCc3ccc(F)cc3[C@H]2C1
Reply text: 6.91

Inquiry: Please report the measured CC50 at 5 days for O=C(NCc1ccc(F)c(Cl)c1F)c1cn2c(c(O)c1=O)C(=O)N1CCCC[C@@H]2C1
Reply text: 4.96
